In this section, each of the sequences is paired with its reported PBM binding z-score.
# System: RARa:RXR (NR concentration 270 nM, RXRa partner concentration 90 nM)
# test: PBM binding z-score (relative to random genomic background probes); higher = stronger binding; sequences stand for … in GC…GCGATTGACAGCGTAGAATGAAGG
// print number alone

// solved cases for PBM binding z-score follow
[
  {
    "sequence_record": "ATATGTAGGTTACATCCGGCTCATTCAGGCTATG",
    "attribute_measured": "PBM binding z-score",
    "reading": 0.506
  },
  {
    "sequence_record": "AGAGCGAGGGCAATGAGTTGATAGCACGGGTGGC",
    "attribute_measured": "PBM binding z-score",
    "reading": 0.0108
  },
  {
    "sequence_record": "CCTTACGGGTCACTGAAAGGTTATAGCATTTGGA",
    "attribute_measured": "PBM binding z-score",
    "reading": 6.33
  }
]

Respond only with PBM binding z-score recorded for ATAACAAGGTGATCGTGAGGTCGTTGATACTAAC
2.01

Respond only with PBM binding z-score recorded for TCTGCTAGGTCAACGATCGTCAGCTAATCTGCTA
1.79

Respond only with PBM binding z-score recorded for CGTCAAAGTTCAACTAAGGTAACGTAAAGCACGC
4.67

Respond only with PBM binding z-score recorded for AGTCAAAGTTCATCTAGGTAACGTCAGATATGCT
4.41

###

# Test system: LXRa homodimer (NR concentration 270 nM)
# test: PBM binding z-score (relative to random genomic background probes); higher = stronger binding; sequences stand for … in GC…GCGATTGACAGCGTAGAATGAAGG
# cutoff 0.06 applies to PBM binding z-score; >= gives MET, < gives NOT MET

[
  {
    "sequence_record": "TCTCGAAGGACACGAAGGTCAGAGCTTTCCAGAG",
    "class_label": "NOT MET"
  },
  {
    "sequence_record": "TTACCAAGATGAAAGGTCGTTGATGCACGCCTTG",
    "class_label": "MET"
  },
  {
    "sequence_record": "GCATATAGGTAATCCAAGGTGAAAGTCCGATTGT",
    "class_label": "MET"
  },
  {
    "sequence_record": "ATCTCCAGGTAACAAGTTCAGTGAAAGAGAGGAC",
    "class_label": "MET"
  },
  {
    "sequence_record": "CGTCAAACTTCAAGGTAACGTAACAGAAAGCAGC",
    "class_label": "NOT MET"
  },
  {
    "sequence_record": "ACTAGCAGGCCTAGGGTCACTCAAGATTAGTCCG",
    "class_label": "NOT MET"
  },
  {
    "sequence_record": "CGGCCAAGGTCAATGCTAGGTCAGTGAAAGCATT",
    "class_label": "MET"
  },
  {
    "sequence_record": "ATATGTAGGTTAAGGGTCATTCGGGTTGGTTCGC",
    "class_label": "MET"
  }
]

Entry TAGCCTAGGTCAGATCGGGCTAGTATACGCTATA : is its PBM binding z-score no less than 0.06?
NOT MET

Entry AGAACGAGGGCACGCTGAATTGATAGCAGAGTAG : is its PBM binding z-score no less than 0.06?
NOT MET

Entry TCTAGTTGGCCACGGAGGTCACACACGACGGGTA : is its PBM binding z-score no less than 0.06?
MET

Entry CGTCCAAGGTCAAAGGTCAGTGAGGAGATGACGG : is its PBM binding z-score no less than 0.06?
MET

Entry CTCGAAAGGTCGGTTGAGGTGAGTATGCGGATAA : is its PBM binding z-score no less than 0.06?
NOT MET

Entry ACATACGGGTCAACGAGGTTATAGCACGCGTATA : is its PBM binding z-score no less than 0.06?
MET
